Value source: patent US8710233B2

- targetEntity: vanilloid receptor (VR1) (Homo sapiens, UniProt Q8NER1)
- Construct: expressed in transfected cells; host or cells: CHO K1 cells (ECACC), stably transfected
- Sequence (Q8NER1 whole entry): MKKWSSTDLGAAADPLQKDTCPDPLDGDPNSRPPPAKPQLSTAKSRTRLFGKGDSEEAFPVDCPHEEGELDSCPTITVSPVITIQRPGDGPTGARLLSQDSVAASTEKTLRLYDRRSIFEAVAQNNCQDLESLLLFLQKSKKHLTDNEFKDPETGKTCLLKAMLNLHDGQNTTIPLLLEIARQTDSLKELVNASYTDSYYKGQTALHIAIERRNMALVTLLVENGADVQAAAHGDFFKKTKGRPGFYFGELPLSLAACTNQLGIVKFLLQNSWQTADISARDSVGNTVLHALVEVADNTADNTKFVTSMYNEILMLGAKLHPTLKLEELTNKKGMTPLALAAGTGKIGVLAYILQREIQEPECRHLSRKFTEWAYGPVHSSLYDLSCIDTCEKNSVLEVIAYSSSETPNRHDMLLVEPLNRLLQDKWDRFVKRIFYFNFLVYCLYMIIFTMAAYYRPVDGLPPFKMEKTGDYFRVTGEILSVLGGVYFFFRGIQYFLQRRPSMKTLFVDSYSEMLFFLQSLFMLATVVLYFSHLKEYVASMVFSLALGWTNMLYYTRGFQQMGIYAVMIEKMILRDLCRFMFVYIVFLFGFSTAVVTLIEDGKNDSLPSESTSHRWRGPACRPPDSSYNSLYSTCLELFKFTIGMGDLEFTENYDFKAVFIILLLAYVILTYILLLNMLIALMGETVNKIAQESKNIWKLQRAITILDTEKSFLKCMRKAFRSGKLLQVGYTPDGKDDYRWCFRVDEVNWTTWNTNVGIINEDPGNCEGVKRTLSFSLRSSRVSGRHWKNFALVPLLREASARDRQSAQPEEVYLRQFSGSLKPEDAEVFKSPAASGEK
- protocolDescription: FLIPR Ca2+ influx assay on CHO K1 cells transfected with the VR1 gene (pharmacological method II)
- Type: cell-based
- assayConditions: table 4; capsaicin; read-out: Ki (human) Cap.
Provide the recorded Ki for the entries that follow.
Answers are plain numbers, in nM.

Worked cases, answers included:
CCCCCc1nc(C(F)(F)F)ccc1CNC(=O)[C@H](C)c1ccc(NS(C)(=O)=O)c(F)c1; 78
CC(C(=O)NCc1ccc(C(F)(F)F)nc1N1CC=CCC1)c1ccc(NS(C)(=O)=O)c(F)c1 (centres unmarked); 0.3
CC(C(=O)NCc1ccc(C(F)(F)F)nc1-c1ccc(C(C)(C)C)cc1)c1ccc(NS(C)(=O)=O)c(F)c1 (centres unmarked); 0.5
COc1ccc(-c2cc(C(F)(F)F)ccc2CNC(=O)C(C)c2ccc(NS(C)(=O)=O)c(F)c2)cc1 (centres unmarked); 0.8

Items follow; give Ki for each.
1. Cc1cc(C(C)C(=O)NCc2ccc(C(F)(F)F)nc2N2CCN(c3ccccc3)CC2)ccc1NS(C)(=O)=O (centres unmarked)
2. CCCCOc1nc(C(F)(F)F)ccc1CNC(=O)C(C)c1ccc(NS(C)(=O)=O)c(C)c1 (centres unmarked)
3. Cc1ccc(Nc2nc(C(F)(F)F)ccc2CNC(=O)C(C)c2ccc(NS(C)(=O)=O)c(F)c2)cc1C (centres unmarked)
4. CCOCCOc1nc(C(C)(C)C)ccc1CNC(=O)C(C)c1ccc(NS(C)(=O)=O)c(F)c1 (centres unmarked)
5. COCCCOc1nc(C(F)(F)F)ccc1CNC(=O)C(C)c1ccc(NS(C)(=O)=O)c(F)c1 (centres unmarked)
6. CC(C(=O)NCc1ccc(C(F)(F)F)cc1N1CCN(c2ccc(C(F)(F)F)cc2)CC1)c1ccc(NS(C)(=O)=O)c(F)c1 (centres unmarked)
7. CC(C)CCCc1nc(C(F)(F)F)ccc1CNC(=O)C(C)c1ccc(NS(C)(=O)=O)c(F)c1 (centres unmarked)
8. CCCCOc1nc(C(C)(C)C)ccc1CNC(=O)C(C)c1ccc(NS(C)(=O)=O)c(F)c1 (centres unmarked)

Response:
3
0.6
39.3
23.9
15.3
3.9
0.9
0.9

// each listed compound needs a value for Ki
1. CC(C)OC1CCN(c2nc(C(F)(F)F)ccc2CNC(=O)C(C)c2ccc(NS(C)(=O)=O)c(F)c2)CC1 (centres unmarked)
2. CCCCCCOc1nc(C(F)(F)Cl)ccc1CNC(=O)C(C)c1ccc(NS(C)(=O)=O)c(F)c1 (centres unmarked)
3. CC(C(=O)NCc1ccc(C(C)(C)C)nc1N1CCCCCC1)c1ccc(NS(C)(=O)=O)c(F)c1 (centres unmarked)
4. CC(C(=O)NCc1ccc(C(F)(F)F)nc1N1CCC(C#N)(c2ccccc2)CC1)c1ccc(NS(C)(=O)=O)c(F)c1 (centres unmarked)
5. CC(C(=O)NCc1ccc(C(F)(F)F)nc1-c1cccc(Cl)c1)c1ccc(NS(C)(=O)=O)c(F)c1 (centres unmarked)

Response:
1. 3
2. 0.8
3. 0.9
4. 3.5
5. 0.5
